# Test system: mice
# PROTOCOL_NOTES: Neuropharmacological assay (SmartCube), behavioral signature of compound-treated mice
# Assay type: in vivo
# MEASUREMENT_CONDITIONS: i.p. 15 min before behavioral test, most efficacious dose(s) of 3 doses
MEASURED_PARAMETER: AX: anxiolytic (probability that behavioral signature matches class)

>  <COMPOUND>
Fc1ccc2c(c1)CCO[C@H]2[C@H]1CCN1 [Compound I-92]

>  <EXPERIMENTAL_RESULT>
++ (5% ≤ ++ <25%)

$$$$
>  <COMPOUND>
Clc1ccc2c(c1)[C@@H]([C@@H]1CCCN1)OCC2 [Compound I-30]

>  <EXPERIMENTAL_RESULT>
+++ (25% ≤ +++ <50%)

$$$$
>  <COMPOUND>
Clc1ccc2c(c1)CCO[C@H]2[C@@H]1CCCN1 [Compound I-34]

>  <EXPERIMENTAL_RESULT>
++ (5% ≤ ++ <25%)

$$$$
>  <COMPOUND>
Cc1cccc2c1[C@@H]([C@H]1CCCN1)OCC2 [Compound I-24]

>  <EXPERIMENTAL_RESULT>
++ (5% ≤ ++ <25%)

$$$$
>  <COMPOUND>
Fc1ccc2c(c1)CCCO[C@@H]2[C@@H]1CCCN1 [Compound I-110]

>  <EXPERIMENTAL_RESULT>
++ (5% ≤ ++ <25%)

$$$$
>  <COMPOUND>
Fc1ccc2c(c1)[C@@H]([C@@H]1CCCN1)OCC2 [Compound I-6]

>  <EXPERIMENTAL_RESULT>
++ (5% ≤ ++ <25%)

$$$$
>  <COMPOUND>
N#Cc1ccc2c(c1)[C@H]([C@H]1CCCN1)OCC2 [Compound I-41]

>  <EXPERIMENTAL_RESULT>
++ (5% ≤ ++ <25%)

$$$$
>  <COMPOUND>
COc1cccc2c1[C@@H]([C@H]1CCCN1)OCC2 [Compound I-50]

>  <EXPERIMENTAL_RESULT>
+++ (25% ≤ +++ <50%)

$$$$
>  <COMPOUND>
CCN1CCC[C@H]1[C@@H]1OCCc2cc(F)ccc21 [Compound I-70]

>  <EXPERIMENTAL_RESULT>
+++ (25% ≤ +++ <50%)

$$$$

Reported AX: anxiolytic (probability that behavioral signature matches class) ( c1ccc2c(c1)CCCO[C@H]2[C@H]1CCCN1 [Compound I-100] ) = ++ (5% ≤ ++ <25%)

Ref: patent US10336732B2
